# measured_on: Human ASCT1 (Homo sapiens)
# Construct: expressed in transfected cells; host or cells: Xenopus laevis oocytes (cRNA microinjection)
# Sequence (P43007 whole entry): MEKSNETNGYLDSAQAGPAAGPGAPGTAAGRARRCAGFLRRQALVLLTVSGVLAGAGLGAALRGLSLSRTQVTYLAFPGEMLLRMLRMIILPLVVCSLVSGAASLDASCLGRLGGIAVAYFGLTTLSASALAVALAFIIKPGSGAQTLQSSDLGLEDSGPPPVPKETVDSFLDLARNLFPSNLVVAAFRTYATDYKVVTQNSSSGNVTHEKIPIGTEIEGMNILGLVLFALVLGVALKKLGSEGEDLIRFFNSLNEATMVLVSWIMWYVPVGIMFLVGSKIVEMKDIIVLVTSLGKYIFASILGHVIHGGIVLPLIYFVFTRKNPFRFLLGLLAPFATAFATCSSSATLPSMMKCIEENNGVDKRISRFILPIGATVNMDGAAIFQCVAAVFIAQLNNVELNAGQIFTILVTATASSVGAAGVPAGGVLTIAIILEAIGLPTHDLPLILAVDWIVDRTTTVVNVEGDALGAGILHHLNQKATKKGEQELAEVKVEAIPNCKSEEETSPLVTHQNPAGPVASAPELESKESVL
# method_description: Inhibition of anion leak current, two-electrode voltage clamp in Xenopus oocytes expressing human ASCT1
# Type: cell-based
# condition_description: Xenopus oocytes expressing human ASCT1, held at −20 mV; * = actual Ki, others Ki estimates; read-out: Ki (μM) ACST1
readout_type: Ki (µM)

(A) C[C@H]1[C@@H](C(=O)O)NC[C@@H]1O
(B) O=C(O)[C@H]1NC[C@@H](OCc2ccc(-c3ccccc3)cc2)[C@@H]1O
(C) C[C@@H]1CN[C@H](C(=O)O)[C@H]1O
(D) CC(C)O[C@@H]1CN[C@H](C(=O)O)[C@H]1O
(E) O=C(O)[C@H]1NC[C@@H](Oc2ccccc2)C1O (stereo in doubt) [CSE118, (2S,3S,4R)-3-hydroxy-4-phenoxy-proline]
For the compounds shown above, give the order from largest Ki to smallest. Please, when replying, give the labels in the order that was requested. C, A, D, E, B

(1) CO[C@H]1CN[C@H](C(=O)O)[C@@H]1O
(2) CO[C@@H]1CN[C@H](C(=O)O)[C@H]1O [CSE115, trans-3-hydroxy-cis-4-methoxy-L-proline]
Smaller Ki value? Options are 1 and 2 // return label of chosen record 2
